- Test system: PBMC
- ASSAY OVERVIEW: Cellular uptake in PHA/IL-2-stimulated human PBMC at 0.01 uM assessed as TFV-diphosphate after 24 hrs by MS/MS analysis
- Format: ADME, cell-based
MEASURE NAME: Drug uptake
Mention the unit after the number when you answer.

Would you kindly share the measured Drug uptake for CCCCCCCCCCCCCCCCOCCCOP(=O)(O)CO[C@H](C)Cn1cnc2c(N)ncnc21 ? 0.07 pmol/10^6 cells

###

- Test system: Human immunodeficiency virus 2
- ASSAY OVERVIEW: Antiviral activity against HIV2 isolate CBL-20 infected in human PBMC after 48 to 72 hrs by MTS assay
- Type: functional, organism-based
- MEASUREMENT PARAMETERS: Human immunodeficiency virus 2, isolate CBL-20
Item-by-item account of EC50
A number alone suffices; assume nM.

CCCCCCCCCCCCCCCCOCCCOP(=O)(O)CO[C@H](C)Cn1cnc2c(N)ncnc21 = 3.5

Hi! What's the reported EC50 for Cc1cn([C@H]2C[C@H](N=[N+]=[N-])[C@@H](CO)O2)c(=O)[nH]c1=O on Human immunodeficiency virus 2? 9.3

###

- Test system: PBMC
- ASSAY OVERVIEW: Cellular uptake in PHA/IL-2-stimulated human PBMC at 10 uM assessed as TFV-monophosphate after 24 hrs by MS/MS analysis
- Type: ADME, cell-based
MEASURE NAME: Drug uptake
Mention the unit after the number when you answer.

Hi! What's the reported Drug uptake for CCCCCCCCCCCCCCCCOCCCOP(=O)(O)CO[C@H](C)Cn1cnc2c(N)ncnc21 [TENOFOVIR EXALIDEX] on PBMC? 0.9 pmol/10^6 cells

###

- Test system: Human immunodeficiency virus 1
- ASSAY OVERVIEW: Antiviral activity against HIV1 isolate 200 harboring reverse transcriptase M41L/L210W/T215Y mutant gene by phenosense assay relative to wild type
- Format: functional
Item-by-item account of fold change (FC)
Please give only the number in your answer, with no unit.

Check out these entries, answers already filled in.
Cc1cn([C@H]2C=C[C@@H](CO)O2)c(=O)[nH]c1=O [STAVUDINE] = 2.1
CCCCCCCCCCCCCCCCOCCCOP(=O)(O)CO[C@H](C)Cn1cnc2c(N)ncnc21 [TENOFOVIR EXALIDEX] = 3.2

Would you kindly share the measured fold change (FC) for C[C@H](Cn1cnc2c(N)ncnc21)OCP(=O)(O)O [TENOFOVIR ANHYDROUS] ? 2.8

###

- Tested on: Human immunodeficiency virus 1
- ASSAY OVERVIEW: Antiviral activity against HIV1 isolate 066 harboring reverse transcriptase 184V mutant gene by phenosense assay
- Assay type: functional, organism-based
- MEASUREMENT PARAMETERS: Human immunodeficiency virus 1, isolate 066
Item-by-item account of pEC50
In simple prose, pEC50 is minus the logarithm base ten of a concentration in moles per litre.

Check out these entries, answers already filled in.
C[C@H](Cn1cnc2c(N)ncnc21)OCP(=O)(O)O [TENOFOVIR ANHYDROUS] = 6.28
O=c1[nH]cnc2c1ncn2[C@H]1CC[C@@H](CO)O1 = 5.12

Would you kindly share the measured pEC50 for Cc1cn([C@H]2C[C@H](N=[N+]=[N-])[C@@H](CO)O2)c(=O)[nH]c1=O ? 7.77

###

- System: Human immunodeficiency virus 1
- ASSAY OVERVIEW: Antiviral activity against HIV1 isolate 204 harboring reverse transcriptase M41L/L210W/T215Y/M184V mutant gene by phenosense assay relative to wild type
- Assay type: functional
The label is Satisfied for fold change (FC) below 2 and Not satisfied for fold change (FC) equal to or exceeding 2.

Nc1ccn([C@@H]2CS[C@H](CO)O2)c(=O)n1 [LAMIVUDINE] = Not satisfied
Cc1cn([C@H]2C[C@H](N=[N+]=[N-])[C@@H](CO)O2)c(=O)[nH]c1=O [ZIDOVUDINE] = Not satisfied
C[C@H](Cn1cnc2c(N)ncnc21)OCP(=O)(O)O [TENOFOVIR ANHYDROUS] = Satisfied
Cc1cn([C@H]2C=C[C@@H](CO)O2)c(=O)[nH]c1=O [STAVUDINE] = Satisfied

Does the reported fold change (FC) of the following molecule sit strictly below 2? O=c1[nH]cnc2c1ncn2[C@H]1CC[C@@H](CO)O1 [DIDANOSINE] Satisfied

Could you do the same for Nc1nc(NC2CC2)c2ncn([C@H]3C=C[C@@H](CO)C3)c2n1 [ABACAVIR] , please? Not satisfied

Could you do the same for Nc1nc(=O)n([C@@H]2CS[C@H](CO)O2)cc1F [EMTRICITABINE] , please? Not satisfied

Could you do the same for CCCCCCCCCCCCCCCCOCCCOP(=O)(O)CO[C@H](C)Cn1cnc2c(N)ncnc21 [TENOFOVIR EXALIDEX] , please? Satisfied

###

- System: Human immunodeficiency virus 1
- ASSAY OVERVIEW: Antiviral activity against HIV1 isolate 153 harboring reverse transcriptase L74V mutant gene by phenosense assay
- Format: functional, organism-based
- MEASUREMENT PARAMETERS: Human immunodeficiency virus 1, isolate 153
pEC50: −log10 of the molar value.
Mark F for pEC50 values under 6, and T for everything at or above.

Please review the following examples before continuing.
Cc1cn([C@H]2C=C[C@@H](CO)O2)c(=O)[nH]c1=O = T
CCCCCCCCCCCCCCCCOCCCOP(=O)(O)CO[C@H](C)Cn1cnc2c(N)ncnc21 = T
Nc1ccn([C@@H]2CS[C@H](CO)O2)c(=O)n1 = F

Consider the record given below.
Form field: pEC50 at least 6? Entry: Cc1cn([C@H]2C[C@H](N=[N+]=[N-])[C@@H](CO)O2)c(=O)[nH]c1=O T

###

- Test system: Human immunodeficiency virus 1
- ASSAY OVERVIEW: Antiviral activity against HIV1 1617-1 harboring reverse transcriptase 69K/70G/75I/77L/116Y/151M/184V mutant gene infected in human PBMC by ELISA
- Format: functional, organism-based
- MEASUREMENT PARAMETERS: Human immunodeficiency virus 1, 1617-1
Item-by-item account of EC50

Check out these entries, answers already filled in.
C[C@H](Cn1cnc2c(N)ncnc21)OCP(=O)(O)O [TENOFOVIR ANHYDROUS] = > 6500 nM
CCCCCCCCCCCCCCCCOCCCOP(=O)(O)CO[C@H](C)Cn1cnc2c(N)ncnc21 [TENOFOVIR EXALIDEX] = 5 nM

Turning now to a further record.
Would you kindly share the measured EC50 for Cc1cn([C@H]2C[C@H](N=[N+]=[N-])[C@@H](CO)O2)c(=O)[nH]c1=O [ZIDOVUDINE] ? > 340 nM

###

- Test system: Human immunodeficiency virus 1
- ASSAY OVERVIEW: Antiviral activity against HIV1 isolate 211 harboring reverse transcriptase D67N/K70R/T215F/K219E/M184V mutant gene by phenosense assay relative to wild type
- Assay type: functional
MEASURE NAME: fold change (FC)

Check out these entries, answers already filled in.
Nc1ccn([C@@H]2CS[C@H](CO)O2)c(=O)n1 [LAMIVUDINE] = >80
Nc1nc(=O)n([C@@H]2CS[C@H](CO)O2)cc1F [EMTRICITABINE] = >88
O=c1[nH]cnc2c1ncn2[C@H]1CC[C@@H](CO)O1 [DIDANOSINE] = 1.6

Would you kindly share the measured fold change (FC) for Cc1cn([C@H]2C[C@H](N=[N+]=[N-])[C@@H](CO)O2)c(=O)[nH]c1=O [ZIDOVUDINE] ? 7

Could you do the same for Cc1cn([C@H]2C=C[C@@H](CO)O2)c(=O)[nH]c1=O [STAVUDINE] , please? 1.3

###

- System: Human immunodeficiency virus 1
- ASSAY OVERVIEW: Antiviral activity against HIV1 group O isolate BCF02 infected in human PBMC after 48 to 72 hrs by MTS assay
- Type: functional, organism-based
- MEASUREMENT PARAMETERS: Human immunodeficiency virus 1, isolate BCF02
Item-by-item account of pEC50
In simple prose, pEC50 is minus the logarithm base ten of a concentration in moles per litre.

CCCCCCCCCCCCCCCCOCCCOP(=O)(O)CO[C@H](C)Cn1cnc2c(N)ncnc21 = 8.30

Hi! What's the reported pEC50 for Cc1cn([C@H]2C[C@H](N=[N+]=[N-])[C@@H](CO)O2)c(=O)[nH]c1=O on Human immunodeficiency virus 1? 8.77

###

- System: PBMC
- ASSAY OVERVIEW: Cellular uptake in PHA/IL-2-stimulated human PBMC at 1 uM assessed as TFV-monophosphate level after 24 hrs by MS/MS analysis
- Assay type: ADME, cell-based
MEASURE NAME: Drug uptake (pmol/10^6 cells)
A number alone suffices; assume pmol/10^6 cells.

Would you kindly share the measured Drug uptake for CCCCCCCCCCCCCCCCOCCCOP(=O)(O)CO[C@H](C)Cn1cnc2c(N)ncnc21 [TENOFOVIR EXALIDEX] ? 0.3
